Test system: OVCAR-3 ovarian
assay text: NCI-60 one-dose screen, 48 h (100 = growth as untreated, 0 = no growth, -100 = all killed)
reported conditions: 10 µM
This is part of a sample that, as a whole, favours compounds with a hit. Of some 83,000 tested, about 20% had one in any assay. The source made the active and inactive calls. The calls were made as follows: active = growth percent below 10; inactive = the rest.
Catalogue of growth readings, one per entry.
metric: growth

• C=CC[Se]C(=O)c1ccc(C(=O)[Se]CC=C)s1 = -92.9% (active)
• CC(C)N=C([Se])NC(=O)c1cccs1 = 66.3% (inactive)
• COC(=O)C[C@](O)(CCCC(C)C)C(=O)O[C@H]1C(OC)=C[C@@]23CCCN2CCc2cc4c(cc2[C@@H]13)OCO4 = -31% (active)
• O=C(/C=C/c1ccc(Cl)cc1Cl)c1nc2ccccc2n1Cc1ccc(F)cc1 = 31.7% (inactive)
• O=C(/C=C/c1ccccc1Cl)c1nc2ccccc2n1Cc1ccc(F)cc1 = -50.8% (active)
• O=C(/C=C/c1ccc(Cl)cc1)c1nc2ccccc2n1Cc1ccc(F)cc1 = 22.7% (inactive)
• Cc1ccc2[nH]c(=S)n(-c3ccc(F)cc3)c(=O)c2c1 = 114% (inactive)
• CC1=C(CCC=NNC(N)=O)C2=C(C)C3(CC3)[C@@](C)(O)C(=O)C2=C1 = -57.4% (active)
• COC(=O)CCn1c(-c2ccc(-n3cc(-c4ccc(O[C@H]5O[C@@H]6OC7(C)CC[C@H]8[C@H](C)CC[C@@H]([C@H]5C)[C@@]68OO7)cc4)nn3)cc2)nc2ccccc21 = 20.4% (inactive)
• C=CCN=C([Se])NC(=O)c1ccc2c(c1)OCO2 = 112% (inactive)
• CC[C@]12C=CCN3CC[C@@]4(c5ccc(OC)cc5N(C)[C@H]4[C@@](O)(C(=O)OC)[C@@H]1OC(=O)CCC[P+](C1CCCCC1)(C1CCCCC1)C1CCCCC1)[C@@H]32 = -48.6% (active)
• O=C(/C=C/c1cccc(Br)c1)c1nc2ccccc2n1Cc1ccc(Br)cc1 = -51.5% (active)
• CC(C)N=C([Se])NC(=O)c1ccccc1 = -61% (active)
• O=C(NCCCCC(c1ccc(F)cc1)c1ccc(F)cc1)Nc1ccc([N+](=O)[O-])c(C(F)(F)F)c1 = 1.5% (active)
• COc1ccc(/C=C/C(=O)c2nc3ccccc3n2Cc2ccc(Br)cc2)cc1 = 60% (inactive)
• COc1cc2cc(C(=O)N3C[C@@H](CCl)c4c3cc(OC(=O)N3CCN(C(=O)CCC(=O)N5CCN(C)CC5)[C@@H]5CSSC[C@@H]53)c3ccccc43)[nH]c2c(OC)c1OC = 16.4% (inactive)
• C#CC[Se]C(=O)c1ccc(C(=O)[Se]CC#C)s1 = 84.5% (inactive)
• COCCOCCOCCOc1ccc(-n2cc(CCCN(CCNc3ccnc4cc(Cl)ccc34)C(=O)CCC(=O)O[C@@H]3O[C@@H]4OC5(C)CC[C@H]6[C@H](C)CC[C@@H]([C@H]3C)[C@@]46OO5)nn2)cc1 = 35.3% (inactive)
• C[C@H]1[C@@H](CC(=O)N[C@@H](Cc2coc3ccccc23)B(O)O)O[C@@H]2OC3(C)CC[C@H]4[C@H](C)CC[C@@H]1[C@@]24OO3 = -14.9% (active)
• COc1cc(OC)c(S(=O)(=O)N(CCCl)CCCl)cc1C(=O)/C=C/c1ccc(C)cc1 = 112% (inactive)
• O=C(/C=C/c1ccco1)c1nc2ccccc2n1Cc1ccc(F)cc1 = 46.3% (inactive)
• O=C(NC([Se])=NC1CCCCC1)c1ccc2c(c1)OCO2 = 25.3% (inactive)
• COc1cc(OC)c(/C=C/C(=O)c2nc3ccccc3n2Cc2ccc(F)cc2)c(OC)c1 = 98.4% (inactive)
• O=C(/C=C/c1ccc(F)cc1)c1nc2ccccc2n1Cc1ccc(Br)cc1 = -73.6% (active)
• COP(=O)(CC(F)(F)C(F)(F)F)OC = -3.42% (active)
• C#CCCCN(CCNc1ccnc2cc(Cl)ccc12)C(=O)CCC(=O)O[C@@H]1O[C@@H]2OC3(C)CC[C@H]4[C@H](C)CC[C@@H]([C@H]1C)[C@@]24OO3 = 25.7% (inactive)
• CC(=O)Oc1ccccc1C(=O)[Se]C(=NC(C)C)NC(C)C = -93.7% (active)
